// provenance: the RNAGym collection of RNA variant scans (doi:10.1126/science.aae0568)

B1: tRNA (parent)
chain: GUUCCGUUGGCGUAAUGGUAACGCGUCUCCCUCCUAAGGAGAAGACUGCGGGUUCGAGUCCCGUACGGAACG

Variants of: B1
Assay: yeast fitness relative to wild type (ratio to wild type); higher = fitter; tRNA-Arg(CCU), competitive growth, 37 C, YPD
This sample holds only a part of the variants without activity.
Measured yeast fitness, listed per entry.

GUUCCGUUGGUGUAAUGAUAACCCGUCUCCCUCUUAAGGAGAAGACUGCGGGUUCGAGACCCGUACGGACCG [C11U G18A G23C C34U U59A A70C] | ≤ 0.5

Read off the recorded yeast fitness for GUUCCGUUGGCGUAAUGGUAACGCGUCUCCCUCCUAAGGAGAAGACUGCGGGUUCGAGUCCCGCACGAAACG [U64C G68A]
0.979

Hello, please tell me recorded yeast fitness for this one: GUUCCGUUGGCGUCAUGGCAACGCGUCUCCCUCUUAAGCAGAAGACUGCGCGUUCGAGUCCCGUACGGAACG [A14C U19C C34U G39C G51C]
≤ 0.5

Indicate the recorded yeast fitness value for this variant: GUUCUGUUGGCGUAAUGGUAACGCGUCUCCCUCCUAAGGAGAAGACUGCGCGUUAGAGUCCUGUUCGGUACG [C5U G51C C55A C62U A65U A69U]
≤ 0.5

Complete the entry with yeast fitness for GUUACGUUGGCGUAAUGGUAACGCGUCUCCCUCCUAAGGAGAAGACUGCGGGUCCGAGUCGCGUACGGAACG [C4A U54C C61G]
≤ 0.5

Given the variant GUUCCGUUGGCGUAAUGGUAACGGGUCUCCCUUCUAUGGAGAAGACUGCGGGUUCGAGUCCCGUACAGAACG [C24G C33U A37U G67A] , write its reported yeast fitness.
≤ 0.5

# return recorded yeast fitness for input GAUCCGUUGGCGUAAUGGUCACGCGUCUCCCUCCUAAGGAGAAGACUGCGGAUUCGAGUCCCGUACGGAACG [U2A A20C G52A]
0.542

Provide yeast fitness value for the following variant: GUUCCGUUGGCGUAAUGGUAACGCGUCUCCCUCCUAAGGAGAUGACUACGGGUUCGAGUCCAGUAGGGAACG [A43U G48A C62A C66G]
0.533

Retrieve yeast fitness measured for GUUCCGUUGGCGUAAUGGUAAUGCGUCUCCCUCCUAAGGUGAAGACUGCGGGUUCGAGUCCCGAACGGAACG [C22U A40U U64A] and print it.
≤ 0.5

Return yeast fitness (reported value) for this variant: GUUCGCUUGGCGUAGUGGUAACGCGUCUCCCUCCUAAGGAGAAGACUGCGGGUUCGAGUCCUGUCCGGAACG [C5G G6C A15G C62U A65C]
0.6

Report yeast fitness, nothing else, for this variant: GUUCCGUUGGCGUAAUGGUAACACGUCUACUUCCUAAGGAGGCGACUGCGGGUGCGAGUCCCGUACGGAACG [G23A C29A C31U A42G A43C U54G]
≤ 0.5
